molecular target: recombinant human IDE42-1019 (Homo sapiens, UniProt P14735); construct: recombinant human IDE42-1019 (R&D Systems); purchased R&D Systems; assay: Protease assay with fluorogenic peptide substrate Mca-[…](Dnp)-OH; assay type: biochemical; conditions: fluorogenic peptide Mca-RPPGFSAFK(Dnp)-OH; plateau at high inhibitor concentration; read-out: Imax (%) Proteolysis (inhibition maximum)
Sequence (P14735 42-1019): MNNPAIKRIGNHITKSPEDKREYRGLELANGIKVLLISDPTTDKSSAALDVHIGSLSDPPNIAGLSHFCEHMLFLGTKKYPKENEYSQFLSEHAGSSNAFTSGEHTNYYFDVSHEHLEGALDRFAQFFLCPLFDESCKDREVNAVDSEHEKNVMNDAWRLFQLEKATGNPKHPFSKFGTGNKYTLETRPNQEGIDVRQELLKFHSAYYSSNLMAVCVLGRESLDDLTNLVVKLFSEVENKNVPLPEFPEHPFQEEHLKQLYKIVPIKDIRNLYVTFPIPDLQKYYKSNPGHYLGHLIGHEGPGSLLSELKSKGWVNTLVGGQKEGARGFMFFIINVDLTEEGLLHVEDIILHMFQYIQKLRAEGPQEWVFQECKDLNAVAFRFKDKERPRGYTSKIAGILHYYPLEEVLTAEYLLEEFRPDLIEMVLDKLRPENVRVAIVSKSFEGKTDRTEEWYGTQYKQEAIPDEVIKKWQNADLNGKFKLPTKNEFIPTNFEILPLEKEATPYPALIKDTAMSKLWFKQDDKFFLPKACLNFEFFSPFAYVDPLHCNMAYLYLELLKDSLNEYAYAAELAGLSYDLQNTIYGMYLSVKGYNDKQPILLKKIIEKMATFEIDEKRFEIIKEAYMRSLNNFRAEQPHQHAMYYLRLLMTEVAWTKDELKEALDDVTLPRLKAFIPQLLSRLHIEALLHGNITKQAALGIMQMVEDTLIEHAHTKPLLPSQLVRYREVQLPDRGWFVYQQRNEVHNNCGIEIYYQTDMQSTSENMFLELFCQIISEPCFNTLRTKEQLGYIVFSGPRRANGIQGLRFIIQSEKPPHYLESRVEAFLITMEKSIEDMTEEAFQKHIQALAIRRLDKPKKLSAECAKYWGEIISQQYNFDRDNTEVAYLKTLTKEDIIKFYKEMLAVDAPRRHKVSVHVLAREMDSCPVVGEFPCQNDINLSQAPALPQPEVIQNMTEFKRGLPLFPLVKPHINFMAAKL
observation-type: Emax (%)

compound	Emax, %
CCS(=O)(=O)N1CCCCN2[C@H](CO)[C@@H](c3ccc(-c4ccccc4C)cc3)[C@@H]2C1 [compound 416]	60
Cc1ccc(-c2ccc([C@H]3C4CN(S(=O)(=O)c5ccccc5C)CCCCN4[C@@H]3CO)cc2)cc1C (stereo partly shown) [K4]	72
Cc1ccccc1-c1ccc([C@H]2C3CN(S(=O)(=O)c4ccccc4C)CCCCN3[C@@H]2CO)cc1 (stereo partly shown) [K12]	65
Cc1cccc(-c2ccc([C@H]3[C@@H](CO)N4CCCCN(C(=O)c5ccncc5)C[C@H]34)cc2)c1 [compound 836]	60

(I) Cc1cccc(-c2ccc([C@H]3[C@@H](CO)N4CCCCN(C(=O)c5cccnc5)C[C@H]34)cc2)c1 [compound 091]
(II) Cc1ccccc1-c1ccc([C@H]2[C@@H](CO)N3CCCCN(C(=O)Nc4ccccc4)C[C@@H]23)cc1 [compound 1570]
Inquiry: Consider I and II . Which of these has its Emax at a higher number? Answer by stating the label of the chosen item.
Reply text: I
(I: 70%, II: 40%)

----------
target: recombinant human IDE42-1019 (Homo sapiens, UniProt P14735); construct: recombinant human IDE42-1019 (R&D Systems); purchased R&D Systems; experiment: Protease assay with fluorogenic peptide substrate Mca-[…](Dnp)-OH; type: biochemical; conditions: fluorogenic peptide Mca-RPPGFSAFK(Dnp)-OH; apparent IC50 for compounds with submaximal inhibition; read-out: IC50 (μM) Proteolysis
observation-type: IC50 (µM)

Consider the worked cases shown below.
compound	test-target	units-of-measure	IC50
Cc1cccc(-c2ccc([C@@H]3[C@@H](CO)N4CCCCN(S(=O)(=O)c5ccccc5C(F)(F)F)C[C@@H]34)cc2)c1C	recombinant human IDE42-1019 (Homo sapiens, UniProt P14735)	µM	0.001
Cc1ccccc1S(=O)(=O)NCCc1ccc(-c2cccc(C)c2C)cc1	recombinant human IDE42-1019 (Homo sapiens, UniProt P14735)	µM	2.5
COc1ccccc1-c1ccc([C@H]2C3CN(S(=O)(=O)c4ccccc4C)CCCCN3[C@@H]2CO)cc1 (some centres unmarked)	recombinant human IDE42-1019 (Homo sapiens, UniProt P14735)	µM	0.3

(1) Cc1cccc(-c2ccc([C@@H]3[C@@H](CO)N4C/C=C\CN(S(=O)(=O)c5ccccc5C)C[C@@H]34)cc2)c1
(2) Cc1cccc(-c2ccc(C3CCN(S(=O)(=O)c4ccc5c(ccn5C)c4)CC3)cc2)c1C
(3) Cc1ccccc1S(=O)(=O)N1CCCCN2C(C1)[C@H](c1ccc(-c3cccc(C)c3C)cc1)[C@H]2CN (some centres unmarked)
(4) Cc1c(Cl)cccc1-c1ccc([C@H]2C3CN(S(=O)(=O)c4ccccc4C(F)(F)F)C/C=C\CN3[C@@H]2CF)cc1 (some centres unmarked)
(5) Cc1cccc(-c2ccc(N3CCN(C(=O)C4CCCC4)CC3)cc2)c1C
Inquiry: In this exercise, place the 5 compounds in ascending sequence of their recorded IC50. Reply format: the labels, ordered as requested.
Reply text: 3, 4, 1, 5, 2
